Read-out: urokinase plasminogen activator (uPA), PLAU (gene 5328)
Assay: BSK_KF3CT_uPA: BioMAP Diversity Plus: KF3CT Assay for urokinase plasminogen activator (uPA) Biomarker Activity (AID 2283075)
Settings: primary human keratinocytes with fibroblasts; actives raise or lower the signal
Activity calls are given as the source filed them. Rule for the calls: active = hit-call score of the fitted dose curve at least 0.9, where 1 is the maximum; inactive = score below 0.9.
Outcomes: active, inactive

- Compound: "Oc1ccc(O)cc1"
  Class Assignment: "inactive"
- Compound: "Cc1cc(SC2=C(O)C[C@@](CCc3ccc(N)cc3)(C(C)C)OC2=O)c(C(C)(C)C)cc1CO"
  Class Assignment: "inactive"
- Compound: "O=[Si]=O"
  Class Assignment: "inactive"
- Compound: "c1ccc2occc2c1"
  Class Assignment: "inactive"
- Compound: "Cc1occc(=O)c1O"
  Class Assignment: "inactive"
- Compound: "CCOCCOCCO"
  Class Assignment: "inactive"
- Compound: "CC(C)COC(=O)CCCCC(=O)OCC(C)C"
  Class Assignment: "inactive"
- Compound: "CC(=O)OC1CC(C)OC(C)O1 (stereo not given)"
  Class Assignment: "inactive"
- Compound: "O=C1OC(c2ccc(O)cc2)(c2ccc(O)cc2)c2ccccc21"
  Class Assignment: "inactive"
- Compound: "C#CC(O)C(CC)CCCC (stereo not given)"
  Class Assignment: "inactive"
- Compound: "OCC(CO)n1cnc(-c2ccc(F)cc2)c1-c1ccnc(Oc2ccccc2)n1"
  Class Assignment: "inactive"
- Compound: "CC(=O)O[C@]1(C(C)=O)CC[C@H]2[C@@H]3C=C(Cl)C4=CC(=O)[C@@H]5C[C@@H]5[C@]4(C)[C@H]3CC[C@@]21C"
  Class Assignment: "inactive"
- Compound: "C/C=C/C=C/C(=O)O"
  Class Assignment: "inactive"
- Compound: "CCCCCCCC(=O)OC"
  Class Assignment: "inactive"
- Compound: "CS(=O)(=O)c1ccc([C@@H](C[C@H]2CCC(=O)C2)C(=O)Nc2cnccn2)cc1Cl"
  Class Assignment: "inactive"
- Compound: "CCCCC(CC)COP(=O)(OCC(CC)CCCC)OCC(CC)CCCC (stereo not given)"
  Class Assignment: "inactive"
- Compound: "CSc1ccc(Oc2ccc(S(N)(=O)=O)cc2CN(C)C)cc1C"
  Class Assignment: "inactive"
- Compound: "CCCC[C@H]1CN(CC2CCOCC2)C(=O)OC12CCN(C1(C)CCN(C(=O)c3c(C)ncnc3C)CC1)CC2"
  Class Assignment: "inactive"
- Compound: "CCCCOC(=O)CCCCC(=O)OCCCC"
  Class Assignment: "inactive"
- Compound: "CCCCCCCCCCCCCCOS(=O)(=O)O"
  Class Assignment: "active"
- Compound: "Cn1cnc2c1c(=O)[nH]c(=O)n2C"
  Class Assignment: "inactive"
- Compound: "OCC(O)CO"
  Class Assignment: "inactive"
- Compound: "O=NO"
  Class Assignment: "inactive"
- Compound: "NC=O"
  Class Assignment: "inactive"
- Compound: "CCCC(=O)O"
  Class Assignment: "inactive"
- Compound: "CC(=O)CC(c1ccccc1)c1c(O)c2ccccc2oc1=O (stereo not given)"
  Class Assignment: "inactive"
- Compound: "CO[C@@H]1COCC[C@@H]1N[C@@H]1CC[C@@](C(=O)N2CCc3ncc(C(F)(F)F)cc3C2)(C(C)C)C1"
  Class Assignment: "inactive"
- Compound: "N[C@@H](Cc1c[nH]c2ccccc12)C(=O)O"
  Class Assignment: "inactive"
- Compound: "CCCCc1nc2cccnc2n1Cc1ccc(-c2ccccc2-c2nnn[nH]2)cc1"
  Class Assignment: "inactive"
- Compound: "Nc1nc(=S)c2[nH]cnc2[nH]1"
  Class Assignment: "inactive"
- Compound: "CC(C)(C)c1ccccc1"
  Class Assignment: "inactive"
- Compound: "COC(=O)CCC(=O)OC"
  Class Assignment: "inactive"
- Compound: "O=C(O)c1[nH]n(-c2ccc(S(=O)(=O)O)cc2)c(=O)c1N=Nc1ccc(S(=O)(=O)O)cc1"
  Class Assignment: "inactive"
- Compound: "CCCCCCCCCC[N+](C)(C)[O-]"
  Class Assignment: "inactive"
- Compound: "CCC(C)N(C)C(=O)c1cc2ccccc2c(-c2ccccc2Cl)n1 (stereo not given)"
  Class Assignment: "inactive"
- Compound: "CN(C)C(=O)NC1(c2ccccc2)CCN(CCC[C@]2(c3ccc(Cl)c(Cl)c3)CCCN(C(=O)c3ccccc3)C2)CC1"
  Class Assignment: "inactive"
- Compound: "NC1CCCCC1"
  Class Assignment: "inactive"
- Compound: "CCN(CC)CCOc1ccc(C(=C(Cl)c2ccccc2)c2ccccc2)cc1"
  Class Assignment: "active"
- Compound: "CC1(C)C(=O)NC(=O)N1CO"
  Class Assignment: "inactive"
- Compound: "COc1ccc(C(=O)Nc2nc3ccccc3c(NCc3ccccc3)c2C#N)cc1"
  Class Assignment: "inactive"
- Compound: "CC(N)=O"
  Class Assignment: "inactive"
- Compound: "O=C(N[C@@H](c1ccccc1)[C@@H]1CCCCN1)c1cccc(C(F)(F)F)c1Cl"
  Class Assignment: "active"
- Compound: "CC(COCC(C)OC(=O)c1ccccc1)OC(=O)c1ccccc1 (stereo not given)"
  Class Assignment: "inactive"
- Compound: "Cc1cc(Cc2ccc(N)c(C)c2)ccc1N"
  Class Assignment: "inactive"
- Compound: "CN(C)CCCN(C)CCCN(C)C"
  Class Assignment: "inactive"
- Compound: "Cc1ccc(-c2cc(C(F)(F)F)nn2-c2ccc(S(N)(=O)=O)cc2)cc1"
  Class Assignment: "inactive"
- Compound: "CC(C)NCC(O)c1ccc(O)c(O)c1 (stereo not given)"
  Class Assignment: "inactive"
- Compound: "O=C(Oc1ccccc1)c1cccc(C(=O)Oc2ccccc2)c1"
  Class Assignment: "inactive"
- Compound: "CCCCCCC(C=O)=Cc1ccccc1"
  Class Assignment: "inactive"
- Compound: "Oc1ccccc1O"
  Class Assignment: "active"
- Compound: "CC(C)OC(=O)C(C)(C)Oc1ccc(C(=O)c2ccc(Cl)cc2)cc1"
  Class Assignment: "inactive"
- Compound: "O=C1CCCCC1"
  Class Assignment: "inactive"
- Compound: "CCc1cc(C2=C(C(=O)O)N(c3ccccc3C(F)(F)F)S(=O)(=O)c3ccccc32)cc2c1OCO2"
  Class Assignment: "inactive"
- Compound: "CCCCCCCCCCCCCCCCO"
  Class Assignment: "inactive"
- Compound: "CCCCC(CC)CO (stereo not given)"
  Class Assignment: "inactive"

----------
Read-out: Monocyte Chemoattractant Protein-1 (MCP1), CCL2 (gene 6347)
Experiment: BSK_4H_MCP1: BioMAP Diversity Plus: 4H Assay for Monocyte Chemoattractant Protein-1 (MCP1) Biomarker Activity (AID 2283018)
Conditions: primary human endothelial cells (HUVEC); actives raise or lower the signal
The source made the active and inactive calls. How the source made its calls: active means hit-call score of the fitted dose curve at least 0.9, where 1 is the maximum; inactive means score below 0.9.
Outcomes: YES (active), NO (inactive)

- Molecule: "CC(=O)O"
  Class Assignment: "NO"
- Molecule: "CCCCC(CC)CO (configuration not stated)"
  Class Assignment: "NO"
- Molecule: "CS(=O)(=O)c1ccc([C@@H](C[C@H]2CCC(=O)C2)C(=O)Nc2cnccn2)cc1Cl"
  Class Assignment: "NO"
- Molecule: "COc1ccc(C(=O)Nc2nc3ccccc3c(NCc3ccccc3)c2C#N)cc1"
  Class Assignment: "NO"
- Molecule: "Oc1ccc(O)cc1"
  Class Assignment: "NO"
- Molecule: "O=C1O[C@H]([C@H](O)CO)C(O)=C1O"
  Class Assignment: "NO"
- Molecule: "CN(C)CCCN1c2ccccc2Sc2ccc(Cl)cc21"
  Class Assignment: "YES"

----------
Biological target: Estrogen receptor (Homo sapiens) (UniProt P03372)
Sequence (P03372 whole entry, looked up): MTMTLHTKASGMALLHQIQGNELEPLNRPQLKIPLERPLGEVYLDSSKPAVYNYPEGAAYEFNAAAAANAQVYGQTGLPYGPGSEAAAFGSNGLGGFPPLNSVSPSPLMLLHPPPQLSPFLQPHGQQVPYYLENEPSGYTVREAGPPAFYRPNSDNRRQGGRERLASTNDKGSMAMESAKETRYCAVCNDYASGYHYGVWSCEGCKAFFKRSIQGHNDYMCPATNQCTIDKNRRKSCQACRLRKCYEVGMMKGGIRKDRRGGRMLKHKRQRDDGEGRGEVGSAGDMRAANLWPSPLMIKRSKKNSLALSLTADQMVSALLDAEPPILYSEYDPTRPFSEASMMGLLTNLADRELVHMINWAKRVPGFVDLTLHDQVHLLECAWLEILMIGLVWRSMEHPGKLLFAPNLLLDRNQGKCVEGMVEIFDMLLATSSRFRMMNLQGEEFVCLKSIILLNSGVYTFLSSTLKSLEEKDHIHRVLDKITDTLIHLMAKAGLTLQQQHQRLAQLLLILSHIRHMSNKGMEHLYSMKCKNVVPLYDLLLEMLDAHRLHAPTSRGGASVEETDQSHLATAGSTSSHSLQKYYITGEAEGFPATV
Experiment: OT_ERa_GFPERaERE_0120: Odyssey Thera (OT) 2-hour HeLa Transcription Induction Assay for Estrogen Receptor (AID 2283382)
Activity calls are given as the source filed them. The calls were made as follows: active = hit-call score of the fitted dose curve at least 0.9, where 1 is the maximum; inconclusive = response in the unintended direction; inactive = score below 0.9.
Outcomes: class 1 for active, class 0 for inactive

- Compound: "Cc1ccc(C(C)(C)C)c(O)c1"
  Class Assignment: "class 0"
- Compound: "O=C(O)CN(CC(=O)O)CC(=O)O"
  Class Assignment: "class 0"
- Compound: "O=C(NS(=O)(=O)/C=C/c1cccs1)c1ccc(F)cc1Br"
  Class Assignment: "class 0"
- Compound: "O=C1CCCCC1"
  Class Assignment: "class 0"
- Compound: "Cc1ccc(-c2cc(C(F)(F)F)nn2-c2ccc(S(N)(=O)=O)cc2)cc1"
  Class Assignment: "class 0"
- Compound: "CCCCCCC(CCCCCCCCCCC(=O)OCC(COC(C)=O)OC(C)=O)OC(C)=O (stereo not drawn)"
  Class Assignment: "class 0"
- Compound: "COc1ccc(C(=O)Nc2nc3ccccc3c(NCc3ccccc3)c2C#N)cc1"
  Class Assignment: "class 0"
- Compound: "CCc1nc(N)nc(N)c1-c1ccc(Cl)cc1"
  Class Assignment: "class 0"
- Compound: "COc1ccc(OC(F)(F)F)cc1CN[C@H]1CCCN[C@H]1c1ccccc1"
  Class Assignment: "class 1"
- Compound: "CN(C)CCCN(C)CCCN(C)C"
  Class Assignment: "class 0"
- Compound: "CCCCc1nc2cccnc2n1Cc1ccc(-c2ccccc2-c2nnn[nH]2)cc1"
  Class Assignment: "class 0"
- Compound: "CCCCCCCC(=O)OC"
  Class Assignment: "class 0"
- Compound: "CC(C)OC(=O)C(C)(C)Oc1ccc(C(=O)c2ccc(Cl)cc2)cc1"
  Class Assignment: "class 0"
- Compound: "CCCCCCCCCCCCCCCCO"
  Class Assignment: "class 0"
- Compound: "O=C(O)CC(O)(CC(=O)O)C(=O)O"
  Class Assignment: "class 0"
- Compound: "CC(C)c1cccc(C(C)C)c1"
  Class Assignment: "class 0"
- Compound: "CCC(C)N(C)C(=O)c1cc2ccccc2c(-c2ccccc2Cl)n1 (stereo not drawn)"
  Class Assignment: "class 0"
- Compound: "NC(=Nc1ccccc1)Nc1ccccc1"
  Class Assignment: "class 0"
- Compound: "OCC(CO)n1cnc(-c2ccc(F)cc2)c1-c1ccnc(Oc2ccccc2)n1"
  Class Assignment: "class 0"
- Compound: "Nc1nc(=S)c2[nH]cnc2[nH]1"
  Class Assignment: "class 0"
- Compound: "CCCCCCCCCC[N+](C)(C)[O-]"
  Class Assignment: "class 0"
- Compound: "O=C(N[C@@H](c1ccccc1)[C@@H]1CCCCN1)c1cccc(C(F)(F)F)c1Cl"
  Class Assignment: "class 0"
- Compound: "Oc1ccc(O)cc1"
  Class Assignment: "class 0"

Each recorded value in this set is attributed to PubChem BioAssay (EPA / NIEHS).
